molecular target: BTK C481S (Homo sapiens (Human), UniProt Q06187, C481S); experiment: Binding kinetics measurements (Surface Plasmon Resonance) on BTK C481S; details: target residence time for BTK C481S, SPR
Sequence (Q06187 whole entry C481S): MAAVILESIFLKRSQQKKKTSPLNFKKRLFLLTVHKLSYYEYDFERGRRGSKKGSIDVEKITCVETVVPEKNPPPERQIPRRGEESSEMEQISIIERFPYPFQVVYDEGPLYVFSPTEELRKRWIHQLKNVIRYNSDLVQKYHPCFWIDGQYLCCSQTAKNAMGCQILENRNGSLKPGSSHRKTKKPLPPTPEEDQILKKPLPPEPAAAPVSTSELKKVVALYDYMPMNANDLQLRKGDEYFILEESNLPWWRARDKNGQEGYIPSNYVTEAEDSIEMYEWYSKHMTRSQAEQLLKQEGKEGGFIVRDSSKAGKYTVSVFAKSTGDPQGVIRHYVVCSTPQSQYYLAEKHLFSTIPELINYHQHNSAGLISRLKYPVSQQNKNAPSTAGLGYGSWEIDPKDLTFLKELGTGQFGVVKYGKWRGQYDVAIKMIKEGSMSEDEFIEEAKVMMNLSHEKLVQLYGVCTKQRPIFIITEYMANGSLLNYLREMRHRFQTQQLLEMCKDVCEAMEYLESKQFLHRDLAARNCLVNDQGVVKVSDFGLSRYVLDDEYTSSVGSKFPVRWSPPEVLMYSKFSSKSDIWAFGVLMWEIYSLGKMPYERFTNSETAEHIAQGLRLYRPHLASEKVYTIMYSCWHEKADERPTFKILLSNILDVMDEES
Returns one of T or F; T when Tau (h) BTK C418S (Act) is >= 2 h.

The following molecules have reported results that may help.
>  <MOLECULE>
COc1ccc(F)cc1C(=O)NCc1ccc(-c2nn([C@@H](C)C(F)(F)F)c(N)c2C(N)=O)cc1 [pirtobrutinib, reference compound]

>  <CAT>
F

$$$$
>  <MOLECULE>
CC1NC/C=C/c2cnc(N)c3c(-c4ccc(C(=O)Nc5cc(C(F)(F)F)ccn5)cc4)nn(c23)[C@@H]2CCC[C@H](C2)NC1=O (single isomer, unassigned)

>  <CAT>
T

$$$$
>  <MOLECULE>
Nc1ncc2c3c1c(-c1ccc(C(=O)Nc4cc(C(F)(F)F)ccn4)cc1)nn3[C@@H]1CCC[C@H](C1)NC(=O)[C@H]1CN(C/C=C/2)CCN1

>  <CAT>
T

$$$$
>  <MOLECULE>
N#Cc1ccnc(NC(=O)c2ccc(-c3nn4c5c(cnc(N)c35)/C=C/COCCC(=O)N[C@@H]3CCC[C@@H]4C3)cc2)c1

>  <CAT>
T

$$$$
>  <MOLECULE>
N#Cc1ccnc(NC(=O)c2ccc(-c3nc4n5c(cnc(N)c35)/C=C/COCCC(=O)N[C@@H]3CCC[C@@H]4C3)cc2)c1

>  <CAT>
T

$$$$

[in] Quick check, Tau (h) BTK C418S (Act) >= 2 h? `C[C@@H]1CCn2nc(-c3ccc(C(=O)Nc4cc(C(F)(F)F)ccn4)cc3)c3c(N)ncc(c32)/C=C/COCC(=O)N1`
[out] T

[in] Dear colleague, could you confirm whether `Nc1ncc2c3c1c(-c1ccc(C(=O)Nc4cc(C(F)(F)F)ccn4)cc1)nn3[C@@H]1CCC[C@H](C1)C(=O)NCCCC/C=C/2` has Tau (h) BTK C418S (Act) at or above 2 h?
[out] F

[in] Dear colleague, could you confirm whether `C[C@@H]1CCn2nc(-c3ccc(C(=O)Nc4cc(C(F)(F)F)ccn4)cc3)c3c(N)ncc(c32)/C=C/CCCC(=O)N1` has Tau (h) BTK C418S (Act) at or above 2 h?
[out] F

[in] Could you please find out whether `COc1ccc(F)cc1C(=O)NCc1ccc(-c2nn3c4c(cnc(N)c24)/C=C/CCCCC(=O)N[C@@H]2CCC[C@@H]3C2)cc1` has Tau (h) BTK C418S (Act) that meets 2 h or exceeds it?
[out] F

[in] # bool: Tau (h) BTK C418S (Act) of `N#Cc1ccnc(NC(=O)c2ccc(-c3nc4n5c(cnc(N)c35)/C=C/CCCCCC(=O)N[C@@H]3CCC[C@@H]4C3)cc2)c1` >= 2 h
[out] T

[in] # bool: Tau (h) BTK C418S (Act) of `COc1ccc(F)cc1C(=O)NCc1ccc(-c2nn3c4c(cnc(N)c24)/C=C/CCCCCC(=O)N[C@H](C)CC3)cc1` >= 2 h
[out] F

[in] For this molecule, is measured Tau (h) BTK C418S (Act) 2 h or higher? `C[C@@H]1CC(=O)N[C@@H]2CC[C@H](C2)n2nc(-c3ccc(C(=O)Nc4cc(C(F)(F)F)ccn4)cc3)c3c(N)ncc(c32)/C=C/CCN1`
[out] T
